enrichment ratio: recorded values
B1: PhoQ; a variant is named by its letters at X, in order, P23837 (parent)
chain: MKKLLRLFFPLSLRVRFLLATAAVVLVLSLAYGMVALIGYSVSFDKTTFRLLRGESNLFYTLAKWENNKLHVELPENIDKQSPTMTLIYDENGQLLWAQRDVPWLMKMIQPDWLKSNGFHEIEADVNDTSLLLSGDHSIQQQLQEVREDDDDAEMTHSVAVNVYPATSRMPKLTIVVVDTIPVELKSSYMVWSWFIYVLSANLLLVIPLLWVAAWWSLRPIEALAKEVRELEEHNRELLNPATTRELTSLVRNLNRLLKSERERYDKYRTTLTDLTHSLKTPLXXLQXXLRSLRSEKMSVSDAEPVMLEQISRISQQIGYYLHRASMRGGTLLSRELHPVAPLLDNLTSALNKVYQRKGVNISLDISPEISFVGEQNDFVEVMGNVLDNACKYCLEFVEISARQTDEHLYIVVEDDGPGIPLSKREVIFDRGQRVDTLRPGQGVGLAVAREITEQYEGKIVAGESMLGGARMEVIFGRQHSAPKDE

Variants of: B1
Assay: enrichment ratio after two sorts for PhoP signalling (ratio (wild type AVST 3.29)); higher = more functional
Details: with PhoP (E. coli)
In all, about 140,000 sequences were measured (“enrichment ratio after two sorts for PhoP signalling”: median about 0, highest 2% from about 11 on). This excerpt belongs to a sample that is enriched for the highest values.

{"columns": ["VARIANT_SPEC", "enrichment ratio"],
 "data": [
  ["AIFC", "≤ 0.25"],
  ["DWWS", "≤ 0.25"],
  ["NLWG", "≤ 0.25"],
  ["IKPA", "≤ 0.25"],
  ["RWLE", "≤ 0.25"],
  ["AMTH", 0.411],
  ["GMYH", "≤ 0.25"],
  ["VCDM", "≤ 0.25"],
  ["SDNF", "≤ 0.25"],
  ["AIGH", 2.15],
  ["SCYK", "≤ 0.25"]
]}
